Source: ChEMBL document CHEMBL4513216

tested on: Plasmodium berghei; assay: Screen against P. berghei liver stage (PbLuc), transformed with Luciferase, at 2uM; type: functional, HepG2; conditions: tested at 2 uM
In all, about 68,000 compounds went through this assay and about 2,700 (4%) showed an effect of 50% or more. The list comes from a sample in which strong results are over-represented; it also holds close analogues and randomly drawn compounds.
For each entry below, report its INHIBITION value.
Numbers only, in %.

CNC(=O)C1(C)CCCN1Cc1cnn(C)c1C (centres undefined) ... 18.15

Would you mind listing INHIBITION for each of the following compounds?
1. CCOC1CCC2(CCN(C(=O)c3csnn3)CC2)c2ccccc21 (centres undefined)
2. Cc1nc(C)n(CC2CCCN2CCCOc2ccc(F)cc2)n1 (centres undefined)
3. O=C(CCc1ccccc1)NCC(O)c1c(F)cccc1F (centres undefined)
4. CCCNC(=O)CCNC(=O)c1ccccc1N1CCOCC1
5. O=C(CCNC(=O)c1ccccc1N1CCOCC1)NC1CCCC1
6. Cc1cc(CNc2ccnn2C)ccc1-n1cncn1
7. Cn1cccc1CN1CCC2(CCCN(C(=O)c3cccnc3)C2)CC1
8. Cc1nccn1CCC1CCN(C2CCC3(CCNCC3)CC2)CC1

1: 30.15; 2: -8.1; 3: -17.44; 4: -21.71; 5: 58.76; 6: 14.93; 7: 61.08; 8: 34.52

Would you mind listing INHIBITION for each of the following compounds?
1. CN(C)CCN1CCC2(CCCN(C(=O)C3CCC3)C2)CC1
2. Cc1csc(CNC(=O)NC(C)c2ccc3c(c2)OCCO3)n1 (centres undefined)
3. CC(=O)Nc1ccc2nc(-c3nccn3C[C@@H]3CCCO3)ccc2c1
4. Cn1c(CN2CCCC2c2noc(C3CC3)n2)cc(=O)n(C)c1=O (centres undefined)
5. Cn1cccc1CN1CCC2(CCCN(C(=O)Cc3cccnc3)C2)C1 (centres undefined)

[-9.47, 39.83, 25.13, 12.91, -4.92]

----------
tested on: Plasmodium berghei; test: Screen against P. berghei liver stage (PbLuc), transformed with Luciferase, at 2uM; assay type: functional, HepG2; conditions: tested at 2 uM
About 2,700 (4%) of roughly 68,000 compounds showed an effect of 50% or more. The list comes from a sample in which strong results are over-represented; it also holds close analogues and randomly drawn compounds.
For each entry below, report its INHIBITION value.
Answers are plain numbers, in %.

Cc1noc(C)c1S(=O)(=O)NC(=O)COc1ccc2c(c1)CCC2 ... 56.78
Cc1nccc(C2CN(C(=O)c3cncnc3)C2)n1 ... 38.22

Would you mind listing INHIBITION for each of the following compounds?
1. Cc1noc(C)c1S(=O)(=O)NC(=O)COc1cccc(C(C)C)c1
2. Cc1noc(C)c1S(=O)(=O)NC(=O)COc1ccc(C(C)C)cc1
3. Cc1occc1C(=O)N1Cc2nccn2CC(CN2CCOCC2)C1 (stereo unspecified)
4. CCc1cc(=O)n(CC(=O)N2CCCC2)c(-c2ccc(F)cc2)n1

42.99
19.71
25.86
22.13

----------
For each entry below, report its INHIBITION value.
test system: Plasmodium berghei; assay: Screen against P. berghei liver stage (PbLuc), transformed with Luciferase, at 2uM; type: functional, HepG2; settings: tested at 2 uM
The whole screen tested about 68,000 compounds, of which about 2,700 (4%) showed an effect of 50% or more. The sample holds strong results, similar compounds and a random draw of the others, so the mix is not that of the screen.
One number for each entry, in %.

// worked examples, INHIBITION included
COc1cc(N2C[C@@H]3COC[C@]3(COc3ccc(C#N)cn3)C2)ncn1 ... -15.95
CC(NCC1CCN(CCO)CC1)c1ccc(Cl)cc1 (stereo not drawn) ... 56.49
Cc1ccnc(NC(=O)c2ccc(Br)o2)c1 ... 62.51
Cc1ccnc(NC(=O)c2ccc(Cl)o2)c1 ... 5.48
CN(C)C(=O)CO[C@@H]1CC[C@H]2[C@H]1OCCN2c1ncc(F)cn1 ... 34.89
O=C(c1cccc(S(=O)(=O)NCCc2nccs2)c1)N1CCOCC1 ... 3.58

Would you mind listing INHIBITION for each of the following molecules?
1. CN(C)c1ncc(-c2ccncc2)c(CCNC(=O)C2CC2)n1
2. CC(NCC1CCN(CCO)CC1)c1ccc(C(F)(F)F)cc1 (stereo not drawn)
3. CNC(=O)CN1C(=O)CCC12CCCN(Cc1ccccc1F)C2 (stereo not drawn)
4. CC[C@@H](C)[C@@H](N)C(=O)Nc1cccc(-c2cnc(NCCO)nc2)c1
5. CC(NCC1CCN(CCO)CC1)c1cccnc1 (stereo not drawn)
6. CC(O)CNC(=O)CCc1nc2ncccc2[nH]1 (stereo not drawn)

1. -33.32
2. 55.39
3. -12.98
4. -35.83
5. -4.09
6. 17.33

----------
tested on: Plasmodium berghei; assay: Screen against P. berghei liver stage (PbLuc), transformed with Luciferase, at 2uM; type: functional, HepG2; conditions: tested at 2 uM
The campaign covered roughly 68,000 compounds. About 2,700 (4%) showed an effect of 50% or more. This is one part of a sample in which strong results are shown more often than they occur.
For each entry below, report its INHIBITION value.

// worked examples, INHIBITION included
Cc1noc(C)c1CN1C(=O)[C@@H]2CC[C@H]1CN(Cc1cccnc1N)C2 ... 31.38%
COCCO[C@H]1CCN(C(=O)c2ccsc2)[C@H]1Cc1cnn(C)c1 ... -10.92%
COc1ccccc1[C@@H]1CN(Cc2c(C)noc2C)C[C@H]1C(=O)O ... 68.39%
O=S(=O)(NCCCn1cncn1)c1ccc2c(c1)OCCO2 ... 65.71%

Would you mind listing INHIBITION for each of the following compounds?
1. N#Cc1ccc(C(=O)N2CC[C@H]3[C@@H]2CCC(=O)N3c2cccnc2)cc1
2. CCn1cc(NC(=O)C2CCN(CC(=O)NC(C)(C)CC)CC2)cn1
3. Cc1ccccc1[C@@H]1CN(Cc2c(C)noc2C)C[C@H]1C(=O)O
4. Nc1ncccc1CN1C[C@H]2CC[C@@H](C1)N(CC1CC1)C2=O
5. CN(CC(=O)N1CCOC(CCc2ccccc2)C1)Cc1ccccn1 (stereo unspecified)

-11.44%
7.13%
-18.65%
70.26%
3.94%

Would you mind listing INHIBITION for each of the following compounds?
1. COC(=O)Cn1ccc(NS(=O)(=O)c2ccc3c(c2)CCC3)n1
2. CC(=O)N1CCN(Cc2ccncc2)CC2(CC(=O)N(C)C2)C1 (stereo unspecified)

53.98%
3.49%

----------
system: Plasmodium berghei; experiment: Screen against P. berghei liver stage (PbLuc), transformed with Luciferase, at 2uM; assay type: functional, HepG2; details: tested at 2 uM
The campaign covered roughly 68,000 compounds. About 2,700 (4%) showed an effect of 50% or more. The sample as a whole holds a higher share of strong results than the screen did.
Recorded INHIBITION split into classes low range (below 10%), mid range (10% to below 50%), high range (50% or more)

CN(C)c1nccc(N(C)Cc2ncnn2C)n1 ... high range

Entry "Cc1nnsc1C(=O)NCCn1ccc(-c2ccncc2)n1" belongs to which category?
low range

Entry "CN1CCN2C(=O)N(C3CCOCC3)C[C@H]2C1" belongs to which category?
high range

Entry "CCN1CC[C@@]2(C(=O)N3CCOCC3)CCN(C(=O)NC)CC[C@@H]12" belongs to which category?
mid range

Entry "c1cnc(N2CCC(c3csc(Nc4cnccn4)n3)CC2)nc1" belongs to which category?
low range

Entry O=C(CCCOCc1ccccc1)N1CCCC1c1ccccn1 (stereo unspecified) belongs to which category?
mid range

Entry "Cc1ccc(NC2CCN(C(=O)CN(C)C3CC3)CC2)nn1" belongs to which category?
mid range

----------
tested on: Plasmodium berghei; assay: Screen against P. berghei liver stage (PbLuc), transformed with Luciferase, at 2uM; format: functional, HepG2; details: tested at 2 uM
Out of some 68,000 compounds screened, about 2,700 (4%) showed an effect of 50% or more. Many of the other results were omitted from the sample, so strong results are more common in it than they were.
REPORTED METRIC: INHIBITION (%)
Give bare numbers, in %.

O=C(NCCn1nc2ccccn2c1=O)c1cc(C2CC2)[nH]n1 ... 25.03

Would you mind listing INHIBITION for each of the following compounds?
1. CCN(Cc1cnn(C)c1)C[C@H]1CC[C@@H](Cc2ccc(CO)cc2)O1
2. N#CCCN(CC1CCOC1)Cn1ccc(-c2cccs2)n1 (stereo unspecified)
3. O=c1cccnn1CC1CN(CC2CCCC2)Cc2nccn2C1 (stereo unspecified)
4. CNc1nc(C)c(C(=O)N2CCC(C(O)Cc3ccccc3)CC2)s1 (stereo unspecified)
5. Cc1cccc(S(=O)(=O)N2C[C@@H]3C[C@H](C(=O)NC4CCC4)[C@H](C2)O3)c1
6. CCCc1nnsc1C(=O)NCC1CCN(S(C)(=O)=O)CC1
7. CCCNC(=O)C1(CC2CC(c3ccccc3OC)=NO2)CCOCC1 (stereo unspecified)
8. CC1N(CC2CC2)C(=O)COC12CCN(C(=O)c1cccs1)CC2 (stereo unspecified)

1: 36.78; 2: -42.48; 3: 52.83; 4: 40.88; 5: 12.57; 6: -4.49; 7: 51.57; 8: 32.04

Would you mind listing INHIBITION for each of the following compounds?
1. O=c1cccnn1CC1CN(Cc2ccsc2)Cc2nccn2C1 (stereo unspecified)
2. CS(=O)(=O)N1Cc2nccn2CC(Cn2ncccc2=O)C1 (stereo unspecified)

[-0.51, -9.42]
